# maps each entry to its Percent Effect
- study-target: Protein translocase subunit SecA (Escherichia coli (strain K12)) (UniProt P10408)
- Sequence (P10408 whole entry): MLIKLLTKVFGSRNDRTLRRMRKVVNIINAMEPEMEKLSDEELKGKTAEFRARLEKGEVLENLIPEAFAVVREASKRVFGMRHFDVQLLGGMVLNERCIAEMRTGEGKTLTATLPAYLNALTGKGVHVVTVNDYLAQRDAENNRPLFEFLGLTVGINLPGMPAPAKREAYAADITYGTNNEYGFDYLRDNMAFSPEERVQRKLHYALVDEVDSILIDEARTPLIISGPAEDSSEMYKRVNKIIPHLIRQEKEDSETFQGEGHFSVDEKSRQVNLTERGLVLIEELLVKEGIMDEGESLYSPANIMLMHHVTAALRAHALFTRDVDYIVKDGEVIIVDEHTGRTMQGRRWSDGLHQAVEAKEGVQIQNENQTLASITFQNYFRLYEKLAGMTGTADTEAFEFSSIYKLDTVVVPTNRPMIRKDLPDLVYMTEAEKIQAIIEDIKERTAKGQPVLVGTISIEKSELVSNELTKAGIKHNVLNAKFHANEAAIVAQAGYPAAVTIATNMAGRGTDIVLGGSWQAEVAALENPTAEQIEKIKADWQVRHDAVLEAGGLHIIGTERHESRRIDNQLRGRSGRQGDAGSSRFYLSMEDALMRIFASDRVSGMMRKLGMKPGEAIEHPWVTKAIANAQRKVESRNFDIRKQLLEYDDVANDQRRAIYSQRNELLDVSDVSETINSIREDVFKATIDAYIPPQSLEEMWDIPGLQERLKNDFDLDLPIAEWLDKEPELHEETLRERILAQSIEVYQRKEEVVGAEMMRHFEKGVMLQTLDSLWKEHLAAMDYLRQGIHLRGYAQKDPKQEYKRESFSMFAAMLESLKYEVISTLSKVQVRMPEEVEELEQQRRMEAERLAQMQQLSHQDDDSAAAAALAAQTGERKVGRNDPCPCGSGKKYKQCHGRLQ
- procedure-text: Assay to Identify E. coli SecA ATPase Inhibitors
- Format: functional
- Parameters: scale not given: direction of the effect not stated beside the values
- particulars: 30 µM
Entries with a potency or affinity are not part of this list.
Use % as the unit, but write only the number.

NC(=O)c1nnn(-c2ccc(Br)cc2)n1 : -5.42
CN(CC1CCCO1)C1CCN(CCc2ccccn2)CC1 (configuration not stated) : -1.45

GET /value?item= CCNC(=O)c1nc2c(s1)CCCN2S(C)(=O)=O &field=Percent Effect returns -5.43

// COCc1cccc(CNCc2c(C)nn(C)c2N(C)C)c1 : Percent Effect value = -6.8

Percent Effect for Cc1nc2ccccc2c(=O)n1CCC(=O)N1CCNC(=O)C1 is -4.53

CCn1cc(CN2CCCn3nc(CCC(=O)NCCO)cc3C2)cn1 has a reported Percent Effect of -3.01

Just so you know, measured Percent Effect for FC1(F)CCN(Cc2ccccn2)CC12CCN(c1cccnc1)C2 (configuration not stated) came out at -7.19
